system: Caenorhabditis elegans N2; assay: AC50 for larval growth inhibition (Hill fit); higher = less potent; conditions: exposure time 48 h
Please respond with Met when measured AC50 for larval growth inhibition is strictly beneath 90 µM, and with Not met in all other cases.

# molecule, group-label
measured = [
    ("Cc1ccc(C(C)(C)C)c(O)c1 [2-tert-Butyl-5-methylphenol]", "Not met"),
    ("NC(=O)Cn1c(=O)cc(CCN2CCN(c3nccc4sccc34)CC2)c2ccc(F)cc21 [Trelanserin]", "Not met"),
    ("Clc1nc(Cl)c(Cl)c(Cl)c1Cl [Pentachloropyridine]", "Not met"),
    ("ClC(Cl)(Cl)c1ccccc1 [Benzotrichloride]", "Not met"),
    ("CS(=O)(=O)c1cc(C(F)(F)F)ccc1C(=O)c1cnoc1C1CC1 [Isoxaflutole]", "Not met"),
    ("ClC1=C(Cl)C2(Cl)C3C4CC(C5OC45)C3C1(Cl)C2(Cl)Cl (stereo not given) [Endrin]", "Met"),
    ("CNC(=O)Oc1cccc2c1OC(C)(C)O2 [Bendiocarb]", "Not met"),
    ("Cc1ccc(-c2c(Cl)nc(C#N)n2S(=O)(=O)N(C)C)cc1 [Cyazofamid]", "Met"),
    ("CC(C1CC1)C(O)(Cn1cncn1)c1ccc(Cl)cc1 (stereo not given) [Cyproconazole]", "Not met"),
    ("CNC(=O)N(C)c1nnc(C(C)(C)C)s1 [Tebuthiuron]", "Not met"),
    ("CC[C@@H]1C[C@H](N(Cc2cc(C(F)(F)F)cc(C(F)(F)F)c2)C(C)=O)c2cc(C(F)(F)F)ccc2N1C(=O)OC(C)C", "Not met"),
    ("CSC1=N[C@@](C)(c2ccccc2)C(=O)N1Nc1ccccc1 [Fenamidone]", "Not met"),
    ("C#CC(C)(C)NC(=O)c1cc(Cl)cc(Cl)c1 [Propyzamide]", "Not met"),
    ("Cl[C@H]1[C@H](Cl)[C@@H](Cl)[C@@H](Cl)[C@H](Cl)[C@H]1Cl [Lindane]", "Not met"),
    ("O=C(Nc1ccc([N+](=O)[O-])cc1Cl)c1cc(Cl)ccc1O [Niclosamide]", "Not met"),
    ("CCCN(CCC)c1c([N+](=O)[O-])cc(C(F)(F)F)cc1[N+](=O)[O-] [Trifluralin]", "Met"),
    ("CN(C)C(=S)SSC(=S)N(C)C [Thiram]", "Met"),
    ("Clc1ccc(C(c2ccc(Cl)cc2)C(Cl)(Cl)Cl)cc1 [p,p'-DDT]", "Met"),
    ("CCC(=O)Nc1ccc(Cl)c(Cl)c1 [Propanil]", "Not met"),
    ("COC(=O)NC(=S)Nc1ccccc1NC(=S)NC(=O)OC [Thiophanate-methyl]", "Not met"),
    ("CC(=O)c1ccc2c(c1)[C@H](NC(=O)c1ccc(F)cc1)[C@@H](O)C(C)(C)O2 [Carabersat]", "Not met"),
    ("CCCCCCCCCCCCc1cccc(S(=O)(=O)O)c1 [Triethanolamine dodecylbenzene sulfonate]", "Met"),
    ("O=C(O)CN(CC(=O)O)CC(=O)O [Nitrilotriacetic acid]", "Not met"),
    ("c1ccc2cc3c(ccc4ccccc43)cc2c1 [Benz[a]anthracene]", "Met"),
    ("S=C([S-])NCCNC(=S)[S-].[Mn+2] [Maneb]", "Not met"),
    ("COc1ccc2cc(S(=O)(=O)N[C@H](CC(=O)N[C@H](Cc3ccc(CN4[C@H](C)CCC[C@@H]4C)cc3)C(=O)N(C)C(C)C)c3ccc4c(c3)OCO4)ccc2c1", "Not met"),
    ("O=C1c2c(O)cccc2Cc2cccc(O)c21 [Dithranol]", "Not met"),
    ("COC(=O)c1c(C(F)F)nc(C(F)(F)F)c(C2=NCCS2)c1CC(C)C [Thiazopyr]", "Met"),
    ("CC(C)CCCCCCCOC(=O)CCCCC(=O)OCCCCCCCC(C)C [Diisodecyl adipate]", "Not met"),
    ("CCCOC(=O)c1cc(O)c(O)c(O)c1 [Propyl gallate]", "Not met"),
    ("COC(=O)c1c(Cl)c(Cl)c(C(=O)OC)c(Cl)c1Cl [Chlorthal-dimethyl]", "Not met"),
    ("Clc1ccccc1C(c1ccccc1)(c1ccccc1)n1ccnc1 [Clotrimazole]", "Met"),
    ("CC(C)(O)c1cnn2c(-c3ccc(F)c(-c4c(F)cccc4C#N)c3)cnc2n1", "Not met"),
]
